Target: TxA2 Synthase (Rattus norvegicus)
Construct: TxB2 generated in whole blood during clotting; from tissue; host or cells: rat whole blood, clotting (RRM rats)
Experiment: TxA2 Synthase activity in vitro: TxB2 generated in whole blood during clotting (RRM rats)
Format: cell-based
Conditions: whole blood of RRM rats, clotting 1 h at 37° C., n = 8; limits for p = 0.95; read-out: In vitro effects on T × B2 production, IC50, Whole Blood
Test readout: IC50 (nM)
One number for each entry, in nM.

Consider the following illustrative entries.
> print(dat)
                                   molecule  recorded.number
1  O=C(O)CCCCO/N=C(/c1ccccc1)C(Cc1ccccc1)n1ccnc1 (racemic)               23
2  O=C(O)CCCCO/N=C(\c1ccccc1)C(Cc1ccccc1)n1ccnc1 (racemic)             48.3
3        O=C(O)CCCCO/N=C(\Cn1ccnc1)C1CCCCC1               19

Exercise: What IC50 value was documented for this molecule, CC(=O)Oc1ccccc1C(=O)O [ASA, Acetylsalicylic acid, reference compound] ?
Solution: 42000

###

Molecular target: TxA2 Synthase (Rattus norvegicus, UniProt P49430)
Construct: TxB2 generated in whole blood during clotting; from tissue; host or cells: rat whole blood, clotting (RRM rats)
Sequence (P49430 whole entry): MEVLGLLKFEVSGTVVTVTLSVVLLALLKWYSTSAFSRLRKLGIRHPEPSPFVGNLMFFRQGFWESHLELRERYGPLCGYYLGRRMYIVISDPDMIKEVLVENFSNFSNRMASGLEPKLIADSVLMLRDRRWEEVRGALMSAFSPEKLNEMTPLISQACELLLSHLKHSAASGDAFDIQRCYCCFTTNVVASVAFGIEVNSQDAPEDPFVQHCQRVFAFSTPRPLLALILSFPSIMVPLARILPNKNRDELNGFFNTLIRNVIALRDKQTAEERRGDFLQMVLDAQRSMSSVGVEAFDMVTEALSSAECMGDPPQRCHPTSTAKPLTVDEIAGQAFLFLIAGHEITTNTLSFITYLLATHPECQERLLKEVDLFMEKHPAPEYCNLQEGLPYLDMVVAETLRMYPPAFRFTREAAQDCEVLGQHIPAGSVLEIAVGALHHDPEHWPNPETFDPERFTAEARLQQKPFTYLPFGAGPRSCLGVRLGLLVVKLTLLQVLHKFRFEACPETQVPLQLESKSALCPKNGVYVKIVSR
Test: TxA2 Synthase activity in vitro: TxB2 production in isolated glomeruli (RRM rats)
Type: cell-based
Conditions: isolated glomeruli of RRM rats, 1 h at 37° C., n = 6; limits for p = 0.95; read-out: In vitro effects on T × B2 production, IC50, Glomeruli
Test readout: pIC50
Answers are plain numbers, as −log10 of the molar value.

Exercise: What pIC50 value was documented for this compound, `O=C(O)CCCCO/N=C(\Cn1ccnc1)C1CCCCC1` ?
Solution: 7.44

###

Molecular target: TxA2 receptor (washed human platelets) (Homo sapiens)
Construct: endogenous in cells
Sequence (P21731 whole entry): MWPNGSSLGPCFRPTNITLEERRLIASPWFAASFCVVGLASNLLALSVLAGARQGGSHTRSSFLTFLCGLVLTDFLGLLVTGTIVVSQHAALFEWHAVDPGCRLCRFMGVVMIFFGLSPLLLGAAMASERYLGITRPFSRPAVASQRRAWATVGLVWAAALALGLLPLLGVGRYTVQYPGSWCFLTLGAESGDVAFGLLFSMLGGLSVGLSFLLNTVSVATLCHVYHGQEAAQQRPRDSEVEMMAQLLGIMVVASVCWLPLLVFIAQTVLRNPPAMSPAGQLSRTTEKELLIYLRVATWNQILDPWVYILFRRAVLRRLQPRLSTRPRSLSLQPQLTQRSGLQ
Assay: TxA2 antagonism, [^3H]-SQ 29,548 binding displacement in washed human platelets
Settings: [^3H]-SQ 29,548 5 nM, 30 min at 25° C.
Test readout: pIC50
Answers are plain numbers, as −log10 of the molar value.

Exercise: What pIC50 value was documented for this molecule, O=C(O)CCCCO/N=C(\c1ccccc1)C(Cc1ccccc1)n1ccnc1 (racemic) ?
Solution: 6.72
